Each entry below carries its reported pEC50.
# Test system: acetylated histone H-4 in T24 human bladder cancer cells
# Protocol notes: Histone H4 acetylation in whole cells by immunoblots
# Format: cell-based
# Condition details: T-24, read-out: EC50, concentration effective for increasing the acetylated H-4 signal by 50%, 16 hours incubation, immunoblot densitometry
# Experimental: T24 human bladder cancer cells growing in culture are incubated with HDAC inhibitors for 16 hours. […] of total histone protein are loaded onto SDS/PAGE and transferred to nitrocellulose membranes. Membranes are probed with polyclonal antibodies specific for acetylated histone H-4 (Upstate Biotech Inc.), followed by horse radish peroxidase conjugated secondary antibodies (Sigma). […] Acetylated H-4 signal is quantified by densitometry.
pEC50: −log10 of the molar value.

{"Compound": "O=C(/C=C/c1ccc(NS(=O)(=O)c2ccc(-c3ccccc3)cc2)cc1)NO [Compound 120]", "pEC50": 6.00}
{"Compound": "Nc1ccccc1NC(=O)/C=C/c1ccc(NS(=O)(=O)c2cccc3ccccc23)cc1 [Compound 107]", "pEC50": 5.30}
{"Compound": "COc1ccc(S(=O)(=O)Nc2ccc(/C=C/C(=O)Nc3ccccc3N)cc2)cc1 [Compound 122]", "pEC50": 5.70}
{"Compound": "O=C(/C=C/c1ccc(NS(=O)(=O)c2ccccc2)cc1)NO [Compound 36]", "pEC50": 5.30}
{"Compound": "COc1ccc(S(=O)(=O)Nc2ccc(/C=C/C(=O)NO)cc2)cc1OC [Compound 90]", "pEC50": 6.00}

----------
# Assayed system: recombinant human HDAC-1 enzyme (rHDAC-1) (Homo sapiens (Human), UniProt Q13547)
# Sequence (Q13547 whole entry): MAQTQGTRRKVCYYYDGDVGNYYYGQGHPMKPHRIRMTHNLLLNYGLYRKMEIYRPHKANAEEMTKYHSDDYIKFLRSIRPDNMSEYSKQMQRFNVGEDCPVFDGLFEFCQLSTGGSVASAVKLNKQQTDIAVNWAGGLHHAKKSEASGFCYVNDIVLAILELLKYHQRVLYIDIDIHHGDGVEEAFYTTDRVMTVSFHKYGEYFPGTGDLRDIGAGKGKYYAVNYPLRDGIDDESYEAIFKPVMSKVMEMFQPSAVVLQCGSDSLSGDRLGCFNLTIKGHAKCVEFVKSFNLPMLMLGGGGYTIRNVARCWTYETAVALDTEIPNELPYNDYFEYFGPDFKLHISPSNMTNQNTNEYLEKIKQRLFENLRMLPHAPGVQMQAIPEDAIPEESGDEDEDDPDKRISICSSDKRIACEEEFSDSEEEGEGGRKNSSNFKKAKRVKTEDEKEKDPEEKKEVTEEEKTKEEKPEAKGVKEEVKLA
# Protocol notes: Inhibition of recombinant human HDAC-1 ([3H]-acetylated histone substrate)
# Assay type: biochemical
# Condition details: Table 4, recombinant human HDAC-1
Each entry below carries its reported IC50.

{"Mol smiles": "O=C(/C=C/c1ccc(NS(=O)(=O)c2ccc3ccccc3c2)cc1)NO", "Output unit": "µM", "IC50": 0.03}
{"Mol smiles": "CC(C)c1cc(C(C)C)c(S(=O)(=O)Nc2ccc(/C=C/C(=O)NO)cc2)c(C(C)C)c1", "Output unit": "µM", "IC50": 0.55}
{"Mol smiles": "O=C(/C=C/c1ccc(NS(=O)(=O)c2ccc(Cl)cc2Cl)cc1)NO", "Output unit": "µM", "IC50": 0.3}
{"Mol smiles": "O=C(/C=C/c1ccc(NS(=O)(=O)c2cc3ccccc3s2)cc1)NO", "Output unit": "µM", "IC50": 0.2}

----------
# Assayed system: recombinant human HDAC-1 enzyme (rHDAC-1) (Homo sapiens (Human))
# Protocol notes: Inhibition of recombinant human HDAC-1 ([3H]-acetylated histone substrate)
# Type: biochemical
# Condition details: Table 4, recombinant human HDAC-1
Hi! Could you tag entries with IC50 below 300 nM as Criterion met, and those at or above as Criterion not met? Much appreciated.

{"Compound": "Nc1ccccc1NC(=O)/C=C/c1ccc(NS(=O)(=O)c2cccc3ccccc23)cc1", "Group": "Criterion not met"}
{"Compound": "Nc1ccccc1NC(=O)C#Cc1ccc(NS(=O)(=O)c2ccc(-c3ccccc3)cc2)cc1", "Group": "Criterion not met"}
{"Compound": "O=C(/C=C/c1ccc(NS(=O)(=O)Cc2ccccc2)cc1)NO", "Group": "Criterion not met"}
{"Compound": "COc1ccc(NS(=O)(=O)c2ccc(/C=C/C(=O)NO)cc2)cc1OC", "Group": "Criterion met"}
{"Compound": "O=C(CCc1ccc(NS(=O)(=O)c2ccccc2)cc1)NO", "Group": "Criterion met"}
{"Compound": "Nc1ccccc1NC(=O)c1ccc(CC(=O)c2ccccc2)o1", "Group": "Criterion not met"}
{"Compound": "COc1ccc(S(=O)(=O)Nc2ccc(/C=C/C(=O)Nc3ccccc3N)cc2)cc1OC", "Group": "Criterion not met"}
{"Compound": "O=C(/C=C/c1ccc(NS(=O)(=O)c2ccc(Cl)c(Cl)c2)cc1)NO", "Group": "Criterion met"}
{"Compound": "CN(C)c1cccc2c(S(=O)(=O)Nc3ccc(/C=C/C(=O)NO)cc3)cccc12", "Group": "Criterion met"}
{"Compound": "CC(C)C(Cc1ccc(NS(=O)(=O)c2ccccc2)cc1)C(=O)NO (stereo not drawn)", "Group": "Criterion not met"}
{"Compound": "O=C(CCc1ccc(CCCc2ccccc2)cc1)NO", "Group": "Criterion not met"}
{"Compound": "O=C(/C=C/c1ccc(NS(=O)(=O)c2ccc(-c3cccs3)s2)cc1)NO", "Group": "Criterion met"}
{"Compound": "O=C(/C=C/c1ccc(NS(=O)(=O)c2ccc3oc4ccccc4c3c2)cc1)NO", "Group": "Criterion met"}
{"Compound": "O=C(/C=C/c1ccc(NS(=O)(=O)c2ccc(-c3ccccc3)cc2)cc1)NO", "Group": "Criterion met"}
{"Compound": "O=C(/C=C/c1ccc(NS(=O)(=O)c2cc(Cl)cc(Cl)c2O)cc1)NO", "Group": "Criterion met"}
{"Compound": "O=C(/C=C/c1ccc(S(=O)(=O)Nc2ccc(-c3ccccc3)cc2)cc1)NO", "Group": "Criterion met"}

----------
# Assayed system: recombinant human HDAC-1 enzyme (rHDAC-1) (Homo sapiens (Human), UniProt Q13547)
# Protocol notes: Inhibition of recombinant human HDAC-1 ([3H]-acetylated histone substrate)
# Assay type: biochemical
# Condition details: Table 4, recombinant human HDAC-1
Each entry below carries its reported IC50.

{"Compound": "O=C(/C=C/c1ccc(NS(=O)(=O)c2cccs2)cc1)NO [Compound 87]", "IC50, nM": 600}
{"Compound": "COc1ccc(S(=O)(=O)Nc2ccc(/C=C/C(=O)NO)cc2)cc1 [Compound 113]", "IC50, nM": 200}
{"Compound": "Nc1ccccc1NC(=O)/C=C/c1ccc(NS(=O)(=O)c2ccc(-c3ccccc3)cc2)cc1 [Compound 123]", "IC50, nM": 1000}

----------
# Assayed system: UniProt:Q9BY41
# Sequence (Q9BY41 whole entry): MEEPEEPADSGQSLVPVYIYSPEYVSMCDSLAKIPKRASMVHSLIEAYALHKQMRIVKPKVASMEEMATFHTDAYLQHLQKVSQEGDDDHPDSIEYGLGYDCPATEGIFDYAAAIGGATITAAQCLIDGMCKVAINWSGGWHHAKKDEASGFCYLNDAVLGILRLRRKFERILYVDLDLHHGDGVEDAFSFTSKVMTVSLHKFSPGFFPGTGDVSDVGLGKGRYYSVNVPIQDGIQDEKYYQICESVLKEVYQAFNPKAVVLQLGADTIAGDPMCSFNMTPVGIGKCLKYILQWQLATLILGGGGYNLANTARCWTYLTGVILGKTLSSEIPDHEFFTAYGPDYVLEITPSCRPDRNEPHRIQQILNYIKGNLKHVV
# Protocol notes: Fluorogenic Boc-Lys(Ac)-AMC deacetylase assay (Table 4a), rHDAC-8
# Type: biochemical
# Condition details: Boc-Lys(Ac)-AMC substrate, PI values = IC50 at maximum % inhibition reached

{"Molecule": "O=C(Cc1ccc(CCCCc2ccc3[nH]ccc3c2)cc1)NO [Compound 183]", "Output unit": "µM", "IC50": 0.41}
{"Molecule": "O=C(Cc1ccc(CCCCc2ccccc2C(F)(F)F)cc1)NO [Compound 185]", "Output unit": "µM", "IC50": 0.61}
{"Molecule": "O=C(Cc1ccc(CCCCc2cccc(C(F)(F)F)c2)cc1)NO [Compound 184]", "Output unit": "µM", "IC50": 0.4}
{"Molecule": "O=C(Cc1ccc(CCCCc2cc(F)c(F)cc2F)cc1)NO [Compound 179]", "Output unit": "µM", "IC50": 0.53}

----------
Each entry below carries its reported pooled HDACs percent inhibition.
# Test system: histone deacetylase in nuclear extracts from H446 cells (pooled HDACs)
# Protocol notes: Inhibition of histone deacetylase in H446 nuclear extracts ([3H]-acetylated histone substrate)
# Format: biochemical, human
# Condition details: H446 nuclear extract; @ 1 μM

{"Compound": "Cc1ccc(S(=O)(=O)Nc2ccc(/C=C/C(=O)NO)cc2)cc1 [Compound 108]", "pooled HDACs percent inhibition / % @ 1 μM": 10}
{"Compound": "Nc1ccccc1NC(=O)/C=C/c1ccc(NS(=O)(=O)c2cccc3ccccc23)cc1 [Compound 107]", "pooled HDACs percent inhibition / % @ 1 μM": 0}
{"Compound": "COc1ccc(S(=O)(=O)Nc2ccc(/C=C/C(=O)NO)cc2)cc1 [Compound 113]", "pooled HDACs percent inhibition / % @ 1 μM": 46}
{"Compound": "O=C(/C=C/c1ccc(NS(=O)(=O)c2ccc(Cl)c(Cl)c2)cc1)NO [Compound 109]", "pooled HDACs percent inhibition / % @ 1 μM": 32}

----------
# Protocol notes: Solubility
# Format: physicochemical
# Condition details: pH 2, simulated gastric fluid; read-out: Solubility pH 2
Each entry below carries its reported solubility.

{"Compound": "Cl.NCC1(C(=O)ONC(=O)Cc2ccc(CCCCc3ccccc3)cc2)CC1 [Compound 174g]", "solubility (µM)": 132}
{"Compound": "O=C(Cc1ccc(CCCCc2ccccc2)cc1)NO [H]", "solubility (µM)": 3}
{"Compound": "CC(C)(N)C(=O)ONC(=O)Cc1ccc(CCCCc2ccccc2)cc1.Cl [Compound 174f]", "solubility (µM)": 4}

----------
# Assayed system: recombinant human HDAC-1 enzyme (rHDAC-1) (Homo sapiens (Human), UniProt Q13547)
# Protocol notes: Inhibition of recombinant human HDAC-1 ([3H]-acetylated histone substrate)
# Assay type: biochemical

{"Mol smiles": "O=C(NO)c1ccc(CCSc2ccccc2)cc1", "Assayed system": "recombinant human HDAC-1 enzyme (rHDAC-1) (Homo sapiens (Human), UniProt Q13547)", "IC50 / nM": 900}

----------
# Protocol notes: Solubility
# Type: physicochemical
# Condition details: Milli-Q purified water; read-out: Solubility Water

{"Molecule": "O=C(Cc1ccc(CCCCc2ccccc2)cc1)NO", "Output unit": "µM", "solubility": 3}
{"Molecule": "CC(C)(N)C(=O)ONC(=O)Cc1ccc(CCCCc2ccccc2)cc1.Cl [Compound 174f]", "Output unit": "µM", "solubility": 5}
{"Molecule": "Cl.NCC1(C(=O)ONC(=O)Cc2ccc(CCCCc3ccccc3)cc2)CC1 [Compound 174g]", "Output unit": "µM", "solubility": 195}
